Target: TAOK2 (Rattus norvegicus, UniProt Q9JLS3)
Construct: made in house
Sequence (Q9JLS3 1-320 limits assumed): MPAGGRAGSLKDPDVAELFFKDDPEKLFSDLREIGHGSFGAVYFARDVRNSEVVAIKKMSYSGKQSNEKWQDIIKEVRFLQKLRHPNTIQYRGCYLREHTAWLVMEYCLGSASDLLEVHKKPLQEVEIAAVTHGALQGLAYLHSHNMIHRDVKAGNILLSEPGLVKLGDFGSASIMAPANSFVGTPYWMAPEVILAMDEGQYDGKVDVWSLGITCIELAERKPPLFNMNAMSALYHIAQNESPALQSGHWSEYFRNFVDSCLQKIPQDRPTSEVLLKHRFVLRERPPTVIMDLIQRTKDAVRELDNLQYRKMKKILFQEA
Experiment: Kinase-Glo high-throughput screen / re-screen of TAOK2 activity (MBP substrate)
Format: biochemical
Conditions: estimate from HTS re-screen at 1, 3.3 and 10 μM
Protocol: TAOK2 activity was screened in a high-throughput fashion using Kinase-Glo (Promega). A 20 μL, solution of 50 mM HEPES pH 7.4, 50 mM MgCl2, 1.27 mg/ml MBP and 0.005 mg/ml TAOK2 was added to each well of a 384 well Corning plate using a Biotek MultiFlo dispenser. […] Luminescence was read on an Envision Multilabel plate reader. […]
pIC50: −log10 of the molar value.

| compound | pIC50 |
| --- | --- |
| Cc1cccc(NC(=S)N/N=C/c2c[nH]c3ccccc23)c1 [SW109820] | 6.00 |
| Cc1ccc(NCCCC(=O)N/N=C/c2cc(Br)cc(Br)c2O)cc1 [SW106178] | 5.22 |
| CCc1ccccc1Nc1ncc(-c2sc(NC(C)=O)nc2C)s1 [SW034513] | 5.52 |
| O=C(NCC1COc2ccccc2O1)c1ccc2c(=O)n(Cc3ccco3)c(=S)[nH]c2c1 (centres unmarked) [SW083604] | 6.22 |
| CS(=O)(=O)c1ccc2nc(NC(=O)CCCOc3ccc(Cl)cc3)sc2c1 [SW172006] | 5.30 |
